Provide the recorded pIC50 for the entries that follow.
- target_desc: Maltase-glucoamylase (Homo sapiens, UniProt O43451)
- Sequence (O43451 whole entry): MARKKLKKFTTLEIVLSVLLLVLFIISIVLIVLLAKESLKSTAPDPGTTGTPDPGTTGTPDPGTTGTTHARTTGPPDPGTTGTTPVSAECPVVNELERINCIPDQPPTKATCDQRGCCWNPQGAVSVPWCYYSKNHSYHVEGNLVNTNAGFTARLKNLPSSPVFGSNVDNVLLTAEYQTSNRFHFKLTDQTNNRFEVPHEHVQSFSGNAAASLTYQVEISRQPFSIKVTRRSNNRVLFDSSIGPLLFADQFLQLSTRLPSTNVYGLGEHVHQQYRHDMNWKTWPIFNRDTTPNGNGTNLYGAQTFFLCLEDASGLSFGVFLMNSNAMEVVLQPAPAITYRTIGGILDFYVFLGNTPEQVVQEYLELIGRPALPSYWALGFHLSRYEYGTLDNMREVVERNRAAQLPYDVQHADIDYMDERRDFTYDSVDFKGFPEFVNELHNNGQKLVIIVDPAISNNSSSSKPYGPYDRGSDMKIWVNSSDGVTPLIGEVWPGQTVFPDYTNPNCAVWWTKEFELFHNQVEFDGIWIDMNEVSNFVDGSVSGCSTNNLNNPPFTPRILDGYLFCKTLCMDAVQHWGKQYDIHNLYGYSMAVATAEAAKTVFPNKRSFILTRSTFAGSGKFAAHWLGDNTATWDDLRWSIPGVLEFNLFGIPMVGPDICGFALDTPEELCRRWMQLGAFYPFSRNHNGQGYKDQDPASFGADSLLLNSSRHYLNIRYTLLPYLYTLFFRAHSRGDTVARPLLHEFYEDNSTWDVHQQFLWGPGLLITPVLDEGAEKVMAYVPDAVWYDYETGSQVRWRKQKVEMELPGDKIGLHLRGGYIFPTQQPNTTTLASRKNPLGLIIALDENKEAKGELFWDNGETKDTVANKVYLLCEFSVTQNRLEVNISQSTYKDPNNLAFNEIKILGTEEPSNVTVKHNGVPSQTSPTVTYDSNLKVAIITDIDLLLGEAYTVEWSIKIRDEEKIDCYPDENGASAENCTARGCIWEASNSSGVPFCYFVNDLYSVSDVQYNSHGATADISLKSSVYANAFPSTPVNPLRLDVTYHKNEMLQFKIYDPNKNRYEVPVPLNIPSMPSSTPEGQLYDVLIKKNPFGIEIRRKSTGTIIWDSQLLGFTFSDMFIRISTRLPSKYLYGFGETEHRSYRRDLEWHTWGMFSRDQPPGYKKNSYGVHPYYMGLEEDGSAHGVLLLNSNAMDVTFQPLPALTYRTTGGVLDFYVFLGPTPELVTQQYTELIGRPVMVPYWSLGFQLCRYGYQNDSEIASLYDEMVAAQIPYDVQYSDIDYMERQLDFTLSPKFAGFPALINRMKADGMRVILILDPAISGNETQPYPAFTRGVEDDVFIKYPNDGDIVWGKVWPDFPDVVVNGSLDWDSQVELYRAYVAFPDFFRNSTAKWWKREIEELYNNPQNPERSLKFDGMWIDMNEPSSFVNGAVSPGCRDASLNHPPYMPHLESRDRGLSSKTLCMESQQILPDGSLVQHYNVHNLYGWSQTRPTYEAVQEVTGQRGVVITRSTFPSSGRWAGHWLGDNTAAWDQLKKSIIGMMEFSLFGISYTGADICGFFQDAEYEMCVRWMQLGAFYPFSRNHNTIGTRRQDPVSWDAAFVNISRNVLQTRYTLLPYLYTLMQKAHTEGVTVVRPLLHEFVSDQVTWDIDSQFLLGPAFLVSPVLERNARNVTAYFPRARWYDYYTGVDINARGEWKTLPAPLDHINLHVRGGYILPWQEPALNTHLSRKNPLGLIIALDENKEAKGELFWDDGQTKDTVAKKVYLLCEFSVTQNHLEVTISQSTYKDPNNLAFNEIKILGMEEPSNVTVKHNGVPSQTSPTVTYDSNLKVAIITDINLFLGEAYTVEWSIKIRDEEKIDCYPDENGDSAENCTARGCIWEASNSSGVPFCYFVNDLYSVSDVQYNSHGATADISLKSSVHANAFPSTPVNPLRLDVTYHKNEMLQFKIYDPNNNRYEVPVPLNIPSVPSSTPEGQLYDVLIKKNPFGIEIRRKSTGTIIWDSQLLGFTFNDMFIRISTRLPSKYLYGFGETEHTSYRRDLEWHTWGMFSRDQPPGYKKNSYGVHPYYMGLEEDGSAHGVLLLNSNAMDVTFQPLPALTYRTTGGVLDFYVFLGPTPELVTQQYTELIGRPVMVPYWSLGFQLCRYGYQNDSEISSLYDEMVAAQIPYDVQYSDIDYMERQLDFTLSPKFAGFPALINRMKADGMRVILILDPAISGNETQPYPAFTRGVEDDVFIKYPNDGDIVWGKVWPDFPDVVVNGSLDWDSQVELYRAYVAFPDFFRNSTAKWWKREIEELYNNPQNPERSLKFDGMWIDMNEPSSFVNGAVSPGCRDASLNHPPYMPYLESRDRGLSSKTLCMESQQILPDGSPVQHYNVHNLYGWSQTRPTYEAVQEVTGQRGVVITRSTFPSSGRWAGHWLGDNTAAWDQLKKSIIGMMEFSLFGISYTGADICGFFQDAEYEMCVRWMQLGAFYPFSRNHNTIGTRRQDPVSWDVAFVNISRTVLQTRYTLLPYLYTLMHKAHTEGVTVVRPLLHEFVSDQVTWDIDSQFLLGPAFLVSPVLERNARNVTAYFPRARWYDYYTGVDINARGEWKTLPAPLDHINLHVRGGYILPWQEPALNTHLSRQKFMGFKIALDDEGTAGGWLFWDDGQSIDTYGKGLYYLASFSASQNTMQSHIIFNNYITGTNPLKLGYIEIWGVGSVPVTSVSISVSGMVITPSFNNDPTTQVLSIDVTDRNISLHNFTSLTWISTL
- assay_explanation: Inhibition of alpha-glucosidase (unknown origin)
Give bare numbers, as −log10 of the molar value.

input_smiles	attribute_measured	result
COc1cc(O)cc(CCc2cccc(O)c2)c1	pIC50	3.83

Please look at the following molecule next.
Problem: Maltase-glucoamylase (Homo sapiens, UniProt O43451) / pIC50 / `COc1cc(O)cc(CCc2ccc(O)c(OC)c2)c1` : value?
Result: 3.99

* * *

- target_desc: Maltase-glucoamylase (Homo sapiens)
- assay_explanation: Inhibition of alpha-glucosidase (unknown origin) by HPLC analysis
Assignment: determine reported IC50 for the given molecules.
Answers are plain numbers, in µM.

input_smiles	IC50 [µM]
COc1cc(CCc2cccc(O)c2)cc(O)c1O	214

Hi, could you look up IC50 for each item in my list?
1. COc1ccc(CCc2cc(O)c(O)c(OC)c2)cc1
2. COc1cc([C@@H]2Oc3cc(CCc4ccc(O)cc4)cc(OC)c3O[C@H]2CO)cc(OC)c1O

Result:
1: 200; 2: 9460
